- System: TTK
- experimental conditions: concentration: 1 μM,replicates: in singlicate; n = 1;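 further: KINOMEscan kinase panel screen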
assay readout: %Inh (%)
Numbers only, in %.

Lab note: `CC(C)c1nc(-c2cccc(NS(=O)(=O)c3ccccc3)c2)c(-c2ccnc(Nc3ccc4c(c3)CN(C)CC4)n2)s1` gave %Inh of 23

// field: %Inh; key: `Cn1ccc2ncnc(Oc3ccc(NC(=O)Nc4cncc(C(F)(F)F)c4)c(Cl)c3)c21` ; value = 0

The molecule identified as `CCOC(=O)N1CCC(n2cnc(-c3ccc(F)cc3)c2-c2ccnc(N)n2)CC1` registered its %Inh at 0

Briefly, %Inh measured for `Cl.Nc1n[nH]c2cc(-c3ccccn3)ccc12` : 14

// `Cn1ccc2ncnc(Oc3ccc(NC(=O)Nc4cc(C(C)(C)C)on4)c(Cl)c3)c21` : %Inh value = 2

We now examine a further molecule.
%Inh in this record for `FC(F)(F)c1cc(Br)cc(Nc2nccc(-c3cnn4ncccc34)n2)c1` : 41

----------
- System: PIM1
- experimental conditions: concentration: 1 μM,replicates: in singlicate; n = 1
assay readout: %Inh

# compound `Cl.c1ccc(Oc2ccc(Nc3ccnc4cc(-c5ccc(CN6CCNCC6)o5)ccc34)cc2)nc1` ; its %Inh = 0%

For this compound ( `O=C(Nc1cccc(C(F)(F)F)c1)c1cccc(Oc2ccc3nccn3n2)c1` ), measured %Inh is 0%

Recorded result, `O=C(NOCC1CC1)c1cc(Br)c(F)c(F)c1Nc1ccc(I)cc1Cl` , %Inh: 0%

Memo: `COc1cc2nccc(Nc3ccc(Oc4ccccc4)cc3)c2cc1OC.Cl` , reported %Inh: 0%

Kindly note the recorded %Inh for N#Cc1cccc(C(=O)NC2CCN(c3ccnc(Nc4ccc(F)cc4)n3)C2)c1 (stereo not drawn) , which is 0%

Short answer for CS(=O)c1ccc(-c2coc3ccc(-c4n[nH]c(=O)o4)cc23)cc1 (stereo not drawn) : %Inh was 87%

For the 3 compounds below, give their %Inh values.
1. CCn1c(-c2nonc2N)nc2cncc(CNC3CCNCC3)c21.Cl
2. Cn1ccc2ncnc(Oc3ccc(NC(=O)Nc4ccnc(C(F)(F)F)c4)c(Cl)c3)c21
3. O=c1[nH]cc(-c2ccc(O)cc2)c2sc(-c3ccncc3)cc12

1: 93.4%; 2: 5%; 3: 0%

----------
- Tested on: BRSK1
- experimental conditions: concentration: 1 μM,replicates: in singlicate; n = 1
%Inh of 2% or higher: label 1. Under 2%: label 0.

Recorded results for 5 molecules are shown here.
Hello, I need to know if `COC(=O)Nc1nc2cc(Oc3ccc(NC(=O)Nc4cc(C(F)(F)F)ccc4Cl)cc3)ccc2[nH]1.Cl` has measured %Inh not below 2%. Thanks!
label 0

Is the recorded value of %Inh equal to or greater than 2% for this molecule? `Cc1cccc2c(-c3ccncc3)c(-c3ccc(F)cc3)nn12.Cl`
label 0

Reported %Inh reaches at least 2% for `CN1CCN(CCNc2nc3cc(Oc4ccc(NC(=O)Nc5cc(C(F)(F)F)ccc5F)cc4)ccc3[nH]2)CC1.Cl.Cl` ?
label 0

In plain terms: is recorded %Inh at least 2% for `O=C(Nc1cccc(Oc2ccc3nccn3n2)c1)Nc1cccc(C(F)(F)F)c1` ?
label 1

Check the entry `O=C(Nc1ccccc1)c1cccc(Oc2ccc3nccn3n2)c1` : does %Inh equal or exceed 2%?
label 1

Further cases:
Textbook exercise: given the entry CCNCC(Cc1ccccc1)NC(=O)c1cc(Br)c(-c2ccnc3[nH]ccc23)s1.Cl.Cl (centres unmarked) , state whether its %Inh is greater than or equal to 2%.
label 0

Check this molecule for %Inh at or above 2%: CC(C(=O)NC1CCN(c2ccnc(Nc3ccc(F)cc3)n2)C1)c1ccc(Cl)cc1 (centres unmarked)
label 1

Textbook exercise: given the entry CS(=O)c1ccc(-c2coc3ccc(-c4n[nH]c(=O)o4)cc23)cc1 (centres unmarked) , state whether its %Inh is greater than or equal to 2%.
label 0

Confirm if %Inh reported for the molecule COc1cc(Nc2nccc(N3CCC(NC(=O)c4cccc(C#N)c4)C3)n2)cc(OC)c1OC (centres unmarked) is 2% or above.
label 0

%Inh >= 2% for `Nc1nccc(-c2ccc3c(N)n[nH]c3c2)n1` ?
label 1

----------
- System: DCAMKL3
- Construct: gene DCLK3
- experimental conditions: concentration: 1 μM,replicates: in singlicate; n = 1
assay readout: %Inh (%)
Answers are plain numbers, in %.

Example entries begin here.
Record for `COc1cc2ncn(-c3cc(OCC4CCCCC4)c(C(N)=O)s3)c2cc1OC` under target or system DCAMKL3: %Inh reported as 0

Query COC(=O)c1cccc(NC(=O)NC2CCN(c3ccnc(Nc4cc(OC)c(OC)c(OC)c4)n3)C2)c1 (stereo not drawn) on DCAMKL3; %Inh returned: 0

Summary: `O=C(Nc1ccc(Oc2ccc3nc(NC(=O)C4CC4)cn3n2)c(F)c1)c1cccn(-c2ccccc2)c1=O` , DCAMKL3, %Inh = 29

`Cl.Nc1n[nH]c2cc(-c3ccccn3)ccc12` on DCAMKL3 gives %Inh = 0

Fill in: DCAMKL3 %Inh for `O=C(Nc1cccc(Oc2ccc3nccn3n2)c1)Nc1cccc(C(F)(F)F)c1` = 0

Provide %Inh values for the following items, in order.
1. CC(=O)c1c(-c2ccncc2)[nH]c(-c2ccncc2)c1C
2. CSc1nccc(-c2c(-c3ccc(F)cc3)ncn2CCCN2CCOCC2)n1.Cl
3. Cn1ccc2ncnc(Oc3ccc(NC(=O)Nc4ccnc(C(F)(F)F)c4)c(Cl)c3)c21
4. Cn1ccc2ncnc(Oc3ccc(NC(=O)Nc4cncc(C(F)(F)F)c4)c(Cl)c3)c21

0
0
0
0

Please supply %Inh for each of the following items, keeping them in order.
1. COc1cc2c(Nc3ccc(NC(=O)c4ccccc4)cc3)ncnc2cc1OCCCN1CCOCC1
2. COc1cccc(C2=C(Nc3cccc(Cl)c3)C(=O)NC2=O)c1
3. OCCn1cc(-c2cnc3nnn(Cc4ccc5ncccc5c4)c3n2)cn1
4. CC(C)c1nc(-c2cccc(NS(=O)(=O)c3ccccc3)c2)c(-c2ccnc(Nc3ccc4c(c3)CN(C)CC4)n2)s1

[0, 31, 0, 17]

Please give %Inh for each item listed below.
1. Cc1ccn2nc(-c3ccc(F)cc3)c(-c3ccncc3)c2c1.Cl
2. CC(=O)Nc1ccc(-c2cc3ncnc(SCC(=O)O)c3s2)cc1
3. c1ccc(Oc2ccc(Nc3ccnc4ccc(-c5ccccn5)cc34)cc2)cc1
4. Cc1ccc(C(=O)Nc2ccc(Oc3ccc4nc(NC(=O)C5CC5)cn4c3)c(F)c2)c(=O)n1-c1ccccc1

[0, 12, 0, 0]

Entry `Cn1ccc2ncnc(Oc3ccc(NC(=O)Nc4cnn(C(C)(C)C)c4)c(Cl)c3)c21` , tested on DCAMKL3, has a reported %Inh of 2

----------
- Test system: NEK3
- experimental conditions: concentration: 1 μM,replicates: in singlicate; n = 1
assay readout: %Inh (%)
Answers are plain numbers, in %.

Some entries whose results are on file:
molecule CS(=O)c1ccc(-c2coc3ccc(-c4n[nH]c(=O)o4)cc23)cc1 (stereo not shown) , %Inh observed: 15

Value of %Inh reported for the molecule `C[C@@H](Oc1cc(-n2cnc3cc(-c4cnn(C)c4)ccc32)sc1C(N)=O)c1ccccc1Cl` is 0

Please supply %Inh for each of the following items, keeping them in order.
1. C[C@@H](Oc1cc(-n2cnc3cc(-c4ccncc4)ccc32)sc1C(N)=O)c1ccccc1Cl
2. CC(C)c1nc(-c2cccc(NS(=O)(=O)c3ccccc3)c2)c(-c2ccnc(Nc3ccc4c(c3)CN(C)CC4)n2)s1
3. Cc1nnc(-c2ccc3occ(-c4ccc(S(C)=O)cc4)c3n2)o1 (stereo not shown)
4. O=C(NOCC1CC1)c1cc(Br)c(F)c(F)c1Nc1ccc(I)cc1Cl
5. Cc1ccn2nc(-c3ccc(F)cc3)c(-c3ccncc3)c2c1.Cl
6. Cn1ccc2ncnc(Oc3ccc(NC(=O)Nc4cccc(C(F)(F)F)c4)c(Cl)c3)c21
7. COc1cccc(OC)c1C(=O)Nc1cccc(-c2nn3ccccc3c2-c2ccnc(Nc3cccc(F)c3)n2)c1
8. Cl.Nc1n[nH]c2cc(-c3ccccn3)ccc12

5
27
23
43
3
9
7
1

Dear colleague, could you please provide %Inh for the molecules listed below?
1. Cc1cccc(-c2nc(Nc3ccncc3)c3sccc3n2)n1
2. CS(=O)(=O)Nc1ccc(-c2ccnc3[nH]ccc23)cc1
3. Cl.Cl.NC[C@H](CC1CCCCC1)NC(=O)c1ccc(-c2ccnc3[nH]ccc23)s1
4. O=c1[nH]cc(-c2ccc(O)cc2)c2sc(-c3ccncc3)cc12
5. NC(=O)Nc1sc(-c2ccc(F)cc2)cc1C(N)=O
6. Nc1nccc(-c2ccc3c(N)n[nH]c3c2)n1
7. CN(c1cccc(CNc2nc(Nc3ccc4c(c3)CC(=O)N4)ncc2C(F)(F)F)c1)S(C)(=O)=O
8. CCCC(=O)Nc1n[nH]c2ncccc12

1: 10; 2: 4; 3: 0; 4: 0; 5: 47; 6: 9; 7: 20; 8: 0

// sample `O=C1NCCc2[nH]c(-c3ccncc3)cc21` , its %Inh was 18
